This listing pairs compounds with measured AC50.
# MEASURED_ON: 3',5'-cyclic-AMP phosphodiesterase 4D (Homo sapiens, UniProt Q08499)
# Sequence (Q08499 whole entry): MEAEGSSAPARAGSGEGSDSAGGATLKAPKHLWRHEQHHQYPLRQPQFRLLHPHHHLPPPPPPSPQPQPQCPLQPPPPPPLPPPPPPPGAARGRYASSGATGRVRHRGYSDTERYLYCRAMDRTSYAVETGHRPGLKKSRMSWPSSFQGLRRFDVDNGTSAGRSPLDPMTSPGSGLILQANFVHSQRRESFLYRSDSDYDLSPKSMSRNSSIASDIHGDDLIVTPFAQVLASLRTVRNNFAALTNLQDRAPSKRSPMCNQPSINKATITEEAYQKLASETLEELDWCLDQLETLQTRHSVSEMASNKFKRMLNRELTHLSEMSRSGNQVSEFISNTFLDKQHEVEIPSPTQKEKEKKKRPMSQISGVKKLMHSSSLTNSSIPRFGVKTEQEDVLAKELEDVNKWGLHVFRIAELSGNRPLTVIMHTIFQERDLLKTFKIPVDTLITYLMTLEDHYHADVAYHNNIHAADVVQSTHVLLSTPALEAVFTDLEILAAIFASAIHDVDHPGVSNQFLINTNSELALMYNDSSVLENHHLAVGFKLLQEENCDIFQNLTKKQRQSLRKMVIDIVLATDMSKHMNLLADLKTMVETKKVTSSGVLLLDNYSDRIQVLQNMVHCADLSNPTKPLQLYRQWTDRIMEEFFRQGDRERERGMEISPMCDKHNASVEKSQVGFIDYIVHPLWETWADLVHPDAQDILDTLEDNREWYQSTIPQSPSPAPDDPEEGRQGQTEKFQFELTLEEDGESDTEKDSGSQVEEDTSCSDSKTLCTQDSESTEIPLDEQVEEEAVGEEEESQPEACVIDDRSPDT
# Assay type: functional

- COMPOUND: "COc1ccc2nc3cc(Cl)ccc3c(Nc3cc(CN4CCCC4)c(O)c(CN4CCCC4)c3)c2n1 [PYRONARIDINE]"
  AC50: "24 µM"
- COMPOUND: "CC(=O)OCC(=O)[C@@]1(O)[C@H](C)C[C@H]2[C@@H]3CCC4=CC(=O)C=C[C@]4(C)[C@@]3(F)[C@@H](O)C[C@@]21C [DEXAMETHASONE ACETATE]"
  AC50: "> 30 µM"
- COMPOUND: "Cc1onc(-c2ccccc2)c1-c1ccc(S(N)(=O)=O)cc1 [VALDECOXIB]"
  AC50: "> 10 µM"
- COMPOUND: "CC(CCc1ccc(O)cc1)NCCc1ccc(O)c(O)c1 (stereo not drawn) [DOBUTAMINE]"
  AC50: "> 30 µM"
- COMPOUND: "CCCCC1C(=O)N(c2ccccc2)N(c2ccccc2)C1=O [PHENYLBUTAZONE]"
  AC50: "> 30 µM"
- COMPOUND: "COc1cc2ncnc(Nc3ccc(F)c(Cl)c3)c2cc1NC(=O)/C=C/CN1CCCCC1 [DACOMITINIB ANHYDROUS]"
  AC50: "25 µM"
- COMPOUND: "C=C[C@H]1C[N@@]2CC[C@H]1C[C@@H]2[C@@H](O)c1ccnc2ccc(OC)cc12 [QUINIDINE]"
  AC50: "> 30 µM"
- COMPOUND: "OC[C@H]1O[C@@](CO)(O[C@H]2O[C@H](CO)[C@@H](O)[C@H](O)[C@H]2O)[C@@H](O)[C@@H]1O [SUCROSE]"
  AC50: "> 30 µM"

Origin of the recorded values: ChEMBL document CHEMBL5291721
